Provenance of the data: patent US10150761B2

Would you kindly list melting point for each of these compounds?
Answers are plain numbers, in °C.

Hi there! I need melting point for each item below, if you can.
1. c1cnc(-c2cnc3ccccc3c2)c(N2CCN(c3ccncc3)CC2)c1 [Compound 33]
2. CS(=O)(=O)Nc1ccc(-c2ncccc2N2CCN(c3ccncc3)CC2)cc1 [Compound 42]
3. c1coc(-c2ccc(-c3ncccc3N3CCN(c4ccncc4)CC3)cc2)c1 [Compound 56]
4. CSc1ccc(-c2ncccc2N2CCN(c3ccncc3)CC2)cc1 [Compound 35]
5. CC(C)(O)c1ncccc1N1CCN(c2ccncc2)CC1 [Compound 70]
6. c1cnc(-c2ccncc2)c(N2CCN(c3ccncc3)CC2)c1 [Compound 20]
7. Cn1ccc2ccc(-c3ncccc3N3CCN(c4ccncc4)CC3)cc21 [Compound 41]

Ans:
[182, 248, 224.32, 160, 163, 166, 174.57]
